Biological target: UniProt P56524
Conditions: read-out: IC50
For each record, check the reported IC50: if it is below 40 µM write 1.0, else write 0.0.

Some entries whose results are on file:
# compound, assigned.category
rows = [
    ("O=C(/C=C/c1ccc(NC(=O)Cc2ccc3ccccc3c2)cn1)NO", 1.0),
    ("O=C(Cc1ccccc1)Nc1ccc(C(=O)NO)nc1", 0.0),
    ("O=C(Cc1cccc2ccccc12)Nc1ccc(C(=O)NO)nc1", 1.0),
    ("CCC(C(=O)Nc1ccc(C(=O)NO)nc1)c1ccccc1 (stereo unspecified)", 0.0),
]

Attention now shifts to the item below.
[Q] Confirm or reject: IC50 of CC(C)C(C(=O)Nc1ccc(C(=O)NO)nc1)c1ccccc1 (stereo unspecified) lies strictly below 40 µM
[A] 0.0

---

Entries and their IC50
Target: Polyamine deacetylase HDAC10 (Homo sapiens)
Sequence (Q969S8 whole entry): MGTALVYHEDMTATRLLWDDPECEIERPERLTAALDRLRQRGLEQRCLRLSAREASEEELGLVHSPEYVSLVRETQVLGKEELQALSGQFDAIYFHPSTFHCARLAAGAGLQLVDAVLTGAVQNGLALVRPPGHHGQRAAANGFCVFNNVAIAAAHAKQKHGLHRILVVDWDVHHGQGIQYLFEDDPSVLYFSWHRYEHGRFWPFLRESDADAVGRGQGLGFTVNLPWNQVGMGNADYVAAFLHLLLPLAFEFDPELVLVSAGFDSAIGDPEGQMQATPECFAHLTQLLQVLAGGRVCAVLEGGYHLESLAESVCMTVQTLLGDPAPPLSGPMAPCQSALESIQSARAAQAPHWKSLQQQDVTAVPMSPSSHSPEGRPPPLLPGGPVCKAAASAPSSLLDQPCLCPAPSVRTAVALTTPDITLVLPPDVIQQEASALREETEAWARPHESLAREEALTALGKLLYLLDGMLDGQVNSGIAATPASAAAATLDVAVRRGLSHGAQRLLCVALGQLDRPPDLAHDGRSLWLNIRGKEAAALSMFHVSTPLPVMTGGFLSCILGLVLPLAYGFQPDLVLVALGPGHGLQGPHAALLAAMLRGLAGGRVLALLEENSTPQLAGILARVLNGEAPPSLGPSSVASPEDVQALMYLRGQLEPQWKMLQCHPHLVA
// units = nM; emit number, no label

Solved entries (count: 2):
# compound, IC50 [nM]
rows = [
    ("O=C(/C=C/c1ccc(NC(=O)Cc2cccc3ccccc23)cn1)NO", 71),
    ("Nc1ccccc1NC(=O)c1ccc(NC(=O)C(Cc2ccccc2)c2ccccc2)cn1 (stereo not drawn)", 320),
]

[Q] Return IC50 measured with Polyamine deacetylase HDAC10 (Homo sapiens) given this compound: "Nc1ccccc1NC(=O)c1ccc(NC(=O)Cc2ccc3ccccc3c2)cn1"
[A] 446

---

Biological target: Histone deacetylase 8 (Homo sapiens)
Sequence (Q9BY41 whole entry): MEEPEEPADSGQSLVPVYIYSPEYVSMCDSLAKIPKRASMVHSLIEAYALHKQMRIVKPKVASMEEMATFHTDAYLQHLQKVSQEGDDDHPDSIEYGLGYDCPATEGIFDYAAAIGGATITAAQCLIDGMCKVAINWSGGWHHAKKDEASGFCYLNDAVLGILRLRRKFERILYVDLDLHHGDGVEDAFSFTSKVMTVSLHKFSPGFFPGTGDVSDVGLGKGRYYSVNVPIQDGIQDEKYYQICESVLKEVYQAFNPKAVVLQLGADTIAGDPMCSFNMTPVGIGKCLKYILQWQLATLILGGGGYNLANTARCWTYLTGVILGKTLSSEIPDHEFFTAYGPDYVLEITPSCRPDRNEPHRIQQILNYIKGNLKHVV
quantity.kind: pIC50
By convention, pIC50 is the negative base-10 log of a molar concentration.

# molecule, measured.result
rows = [
    ("CCC(C(=O)Nc1ccc(C(=O)Nc2ccccc2N)nc1)c1ccccc1 (centres undefined)", 4.18),
]

[Q] Return pIC50 measured with Histone deacetylase 8 (Homo sapiens) given this molecule: "Nc1ccccc1NC(=O)/C=C/c1ccc(NC(=O)Cc2ccccc2)cn1"
[A] 4.50

[Q] Likewise for CC(C)C(C(=O)Nc1ccc(C(=O)Nc2ccccc2N)nc1)c1ccccc1 (centres undefined) ?
[A] 4.12

[Q] Likewise for "O=C(Cc1ccc2ccccc2c1)Nc1ccc(C(=O)NO)nc1" ?
[A] 6.01

---

Entries and their pIC50
Biological target: Histone deacetylase 4 (Homo sapiens, UniProt P56524)
Sequence (P56524 whole entry): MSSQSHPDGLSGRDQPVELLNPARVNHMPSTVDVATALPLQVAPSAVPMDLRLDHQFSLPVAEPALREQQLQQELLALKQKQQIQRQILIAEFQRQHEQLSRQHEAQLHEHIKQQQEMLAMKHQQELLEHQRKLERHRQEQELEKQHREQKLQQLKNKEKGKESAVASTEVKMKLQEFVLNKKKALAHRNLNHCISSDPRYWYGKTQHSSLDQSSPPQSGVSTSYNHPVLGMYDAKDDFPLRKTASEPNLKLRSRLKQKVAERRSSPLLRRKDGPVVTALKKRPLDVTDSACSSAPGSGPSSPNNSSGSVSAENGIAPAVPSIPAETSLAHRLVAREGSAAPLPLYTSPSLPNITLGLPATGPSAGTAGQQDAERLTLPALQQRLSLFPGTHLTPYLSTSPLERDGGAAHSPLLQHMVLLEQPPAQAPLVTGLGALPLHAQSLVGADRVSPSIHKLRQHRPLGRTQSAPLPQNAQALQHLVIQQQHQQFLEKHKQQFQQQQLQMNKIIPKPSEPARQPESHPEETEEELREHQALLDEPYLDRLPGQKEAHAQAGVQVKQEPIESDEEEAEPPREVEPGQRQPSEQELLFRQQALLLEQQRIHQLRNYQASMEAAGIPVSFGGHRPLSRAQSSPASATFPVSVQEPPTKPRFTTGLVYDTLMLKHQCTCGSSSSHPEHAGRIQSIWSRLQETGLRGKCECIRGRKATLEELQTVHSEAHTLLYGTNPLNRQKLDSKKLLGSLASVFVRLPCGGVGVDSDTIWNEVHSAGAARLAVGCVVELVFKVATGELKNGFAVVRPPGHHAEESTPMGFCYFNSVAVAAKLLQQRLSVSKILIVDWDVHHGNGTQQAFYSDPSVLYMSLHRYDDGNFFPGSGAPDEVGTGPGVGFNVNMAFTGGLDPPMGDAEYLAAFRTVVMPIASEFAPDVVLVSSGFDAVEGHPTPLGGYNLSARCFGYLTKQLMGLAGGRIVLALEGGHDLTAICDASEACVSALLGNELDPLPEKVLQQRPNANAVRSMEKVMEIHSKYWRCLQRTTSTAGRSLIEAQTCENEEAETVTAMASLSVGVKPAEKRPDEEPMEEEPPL
Conditions: read-out: IC50
By convention, pIC50 is the negative base-10 log of a molar concentration.

Solved entries (count: 3):
# compound, quantity.kind, measured.result
rows = [
    ("CC(C)C(C(=O)Nc1ccc(/C=C/C(=O)NO)nc1)c1ccccc1 (centres undefined)", "pIC50", 4.80),
    ("O=C(/C=C/c1ccc(NC(=O)Cc2ccccc2)cn1)NO", "pIC50", 4.71),
    ("CCC(C(=O)Nc1ccc(/C=C/C(=O)NO)nc1)c1ccccc1 (centres undefined)", "pIC50", 4.77),
]

[Q] Return pIC50 measured with Histone deacetylase 4 (Homo sapiens, UniProt P56524) given this compound: "O=C(Cc1ccc2ccccc2c1)Nc1ccc(C(=O)NO)nc1"
[A] 4.80

---

Entries and their pIC50
System: MV4-11
Assay: Antiproliferative activity against human MV4-11 cells incubated for 48 hrs
Assay type: functional, cell-based
Conditions: MV4-11, 48 h
By convention, pIC50 is the negative base-10 log of a molar concentration.

Solved entries (count: 2):
# cpd.smiles, pIC50
measured = [
    ("Nc1ccccc1NC(=O)c1ccc(CNc2nccc(-c3cccnc3)n2)cc1", 6.72),
    ("Nc1ccccc1NC(=O)c1ccc(NC(=O)Cc2ccc3ccccc3c2)cn1", 6.77),
]

[Q] Form field: reported pIC50 of "O=C(/C=C/c1ccc(NC(=O)Cc2cccc3ccccc23)cn1)NO"
[A] 7.23

---

Entries and their pIC50
System: A549
Experiment: cells
Type: functional, cell-based
Conditions: Homo sapiens, A549, 72 h
By convention, pIC50 is the negative base-10 log of a molar concentration.

# compound, target.system, pIC50
records = [
    ("Nc1ccccc1NC(=O)c1ccc(NC(=O)Cc2ccccc2)cn1", "A549", 5.87),
    ("CC(C)C(C(=O)Nc1ccc(/C=C/C(=O)Nc2ccccc2N)nc1)c1ccccc1 (stereo not given)", "A549", 5.24),
    ("Nc1ccccc1NC(=O)c1ccc(NC(=O)Cc2ccc3ccccc3c2)cn1", "A549", 5.89),
]

[Q] Form field: reported pIC50 of O=C(/C=C/c1ccc(NC(=O)C(Cc2ccccc2)c2ccccc2)cn1)NO (stereo not given)
[A] 6.66

[Q] Likewise for Nc1ccccc1NC(=O)c1ccc(NC(=O)C(Cc2ccccc2)c2ccccc2)cn1 (stereo not given) ?
[A] 5.82

---

Target: Histone deacetylase 9 (Homo sapiens, UniProt Q9UKV0)
Sequence (Q9UKV0 whole entry): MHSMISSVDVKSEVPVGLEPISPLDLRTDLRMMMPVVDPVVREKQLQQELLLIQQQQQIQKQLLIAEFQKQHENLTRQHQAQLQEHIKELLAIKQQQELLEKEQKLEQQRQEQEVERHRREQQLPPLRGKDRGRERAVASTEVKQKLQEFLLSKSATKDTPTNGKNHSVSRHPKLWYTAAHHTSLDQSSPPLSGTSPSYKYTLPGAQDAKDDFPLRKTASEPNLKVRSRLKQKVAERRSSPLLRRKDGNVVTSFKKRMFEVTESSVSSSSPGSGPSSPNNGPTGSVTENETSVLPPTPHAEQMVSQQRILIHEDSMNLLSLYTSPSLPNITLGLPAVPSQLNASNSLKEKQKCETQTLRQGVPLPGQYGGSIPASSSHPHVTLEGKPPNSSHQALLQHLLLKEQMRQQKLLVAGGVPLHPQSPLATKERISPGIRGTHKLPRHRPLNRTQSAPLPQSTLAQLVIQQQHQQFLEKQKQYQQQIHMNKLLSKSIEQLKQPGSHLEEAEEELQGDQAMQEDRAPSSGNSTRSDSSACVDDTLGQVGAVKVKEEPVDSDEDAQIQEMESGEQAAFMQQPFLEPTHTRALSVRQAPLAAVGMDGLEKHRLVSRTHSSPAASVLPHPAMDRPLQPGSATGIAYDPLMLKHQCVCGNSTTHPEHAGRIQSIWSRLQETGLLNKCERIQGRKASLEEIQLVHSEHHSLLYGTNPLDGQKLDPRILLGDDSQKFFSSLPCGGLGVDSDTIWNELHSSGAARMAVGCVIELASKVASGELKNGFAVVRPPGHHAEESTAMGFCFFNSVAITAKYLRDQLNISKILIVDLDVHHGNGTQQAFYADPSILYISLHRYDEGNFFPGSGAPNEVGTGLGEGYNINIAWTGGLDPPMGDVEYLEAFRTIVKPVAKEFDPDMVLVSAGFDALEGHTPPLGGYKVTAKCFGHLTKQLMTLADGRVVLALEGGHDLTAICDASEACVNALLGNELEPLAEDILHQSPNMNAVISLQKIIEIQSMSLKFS
quantity.kind: pIC50
By convention, pIC50 is the negative base-10 log of a molar concentration.

[Q] Form field: reported pIC50 of "O=C(/C=C/c1ccc(NC(=O)Cc2cccc3ccccc23)cn1)NO"
[A] 5.55

---

Assay system Histone deacetylase 3 (Homo sapiens, UniProt O15379); read-out recorded as IC50.
// units = µM; emit number, no label

Solved entries (count: 5):
# compound, IC50, µM
measured = [
    ("CCC(C(=O)Nc1ccc(C(=O)Nc2ccccc2N)nc1)c1ccccc1 (stereo unspecified)", 0.433),
    ("CC(C)C(C(=O)Nc1ccc(/C=C/C(=O)Nc2ccccc2N)nc1)c1ccccc1 (stereo unspecified)", 0.319),
    ("CCC(C(=O)Nc1ccc(C(=O)NO)nc1)c1ccccc1 (stereo unspecified)", 0.777),
    ("O=C(Cc1cccc2ccccc12)Nc1ccc(C(=O)NO)nc1", 1.39),
    ("CCC(C(=O)Nc1ccc(/C=C/C(=O)Nc2ccccc2N)nc1)c1ccccc1 (stereo unspecified)", 0.268),
]

Now take the following compound into account.
[Q] Form field: reported IC50 of CCC(C(=O)Nc1ccc(/C=C/C(=O)NO)nc1)c1ccccc1 (stereo unspecified)
[A] 0.036

---

Target: Histone deacetylase 1 (Homo sapiens, UniProt Q13547)
Sequence (Q13547 whole entry): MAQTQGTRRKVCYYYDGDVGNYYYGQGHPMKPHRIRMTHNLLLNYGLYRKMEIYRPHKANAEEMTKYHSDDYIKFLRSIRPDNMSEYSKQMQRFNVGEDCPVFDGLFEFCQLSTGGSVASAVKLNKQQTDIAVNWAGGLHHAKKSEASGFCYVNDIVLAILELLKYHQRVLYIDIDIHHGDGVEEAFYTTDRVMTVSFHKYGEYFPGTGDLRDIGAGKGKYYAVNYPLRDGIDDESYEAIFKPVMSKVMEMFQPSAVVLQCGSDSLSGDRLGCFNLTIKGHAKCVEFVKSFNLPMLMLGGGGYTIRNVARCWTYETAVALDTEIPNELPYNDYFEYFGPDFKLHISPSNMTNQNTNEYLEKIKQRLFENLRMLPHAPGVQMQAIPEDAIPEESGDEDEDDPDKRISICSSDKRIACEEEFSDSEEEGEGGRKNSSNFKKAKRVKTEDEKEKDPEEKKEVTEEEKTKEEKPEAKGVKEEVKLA
quantity.kind: pIC50
By convention, pIC50 is the negative base-10 log of a molar concentration.

Solved entries (count: 5):
# molecule, target.system, pIC50
rows = [
    ("CC(C)C(C(=O)Nc1ccc(/C=C/C(=O)Nc2ccccc2N)nc1)c1ccccc1 (stereo unspecified)", "Histone deacetylase 1 (Homo sapiens, UniProt Q13547)", 6.82),
    ("O=C(/C=C/c1ccc(NC(=O)Cc2ccc3ccccc3c2)cn1)NO", "Histone deacetylase 1 (Homo sapiens, UniProt Q13547)", 6.42),
    ("Nc1ccccc1NC(=O)c1ccc(NC(=O)Cc2ccc3ccccc3c2)cn1", "Histone deacetylase 1 (Homo sapiens, UniProt Q13547)", 6.72),
    ("O=C(Cc1cccc2ccccc12)Nc1ccc(C(=O)NO)nc1", "Histone deacetylase 1 (Homo sapiens, UniProt Q13547)", 5.55),
    ("CC(C)C(C(=O)Nc1ccc(C(=O)Nc2ccccc2N)nc1)c1ccccc1 (stereo unspecified)", "Histone deacetylase 1 (Homo sapiens, UniProt Q13547)", 6.48),
]

[Q] Form field: reported pIC50 of "Nc1ccccc1NC(=O)/C=C/c1ccc(NC(=O)Cc2ccccc2)cn1"
[A] 6.97

[Q] Likewise for CCC(C(=O)Nc1ccc(C(=O)NO)nc1)c1ccccc1 (stereo unspecified) ?
[A] 5.83

[Q] Likewise for "Nc1ccccc1NC(=O)c1ccc(NC(=O)Cc2ccccc2)cn1" ?
[A] 6.70

[Q] Likewise for O=C(NO)c1ccc(NC(=O)C(Cc2ccccc2)c2ccccc2)cn1 (stereo unspecified) ?
[A] 6.11

[Q] Likewise for "O=C(Cc1ccccc1)Nc1ccc(C(=O)NO)nc1" ?
[A] 5.52

[Q] Likewise for Nc1ccccc1NC(=O)/C=C/c1ccc(NC(=O)C(Cc2ccccc2)c2ccccc2)cn1 (stereo unspecified) ?
[A] 6.30

---

Biological target: Protein deacetylase HDAC6 (Homo sapiens, UniProt Q9UBN7)
Sequence (Q9UBN7 whole entry): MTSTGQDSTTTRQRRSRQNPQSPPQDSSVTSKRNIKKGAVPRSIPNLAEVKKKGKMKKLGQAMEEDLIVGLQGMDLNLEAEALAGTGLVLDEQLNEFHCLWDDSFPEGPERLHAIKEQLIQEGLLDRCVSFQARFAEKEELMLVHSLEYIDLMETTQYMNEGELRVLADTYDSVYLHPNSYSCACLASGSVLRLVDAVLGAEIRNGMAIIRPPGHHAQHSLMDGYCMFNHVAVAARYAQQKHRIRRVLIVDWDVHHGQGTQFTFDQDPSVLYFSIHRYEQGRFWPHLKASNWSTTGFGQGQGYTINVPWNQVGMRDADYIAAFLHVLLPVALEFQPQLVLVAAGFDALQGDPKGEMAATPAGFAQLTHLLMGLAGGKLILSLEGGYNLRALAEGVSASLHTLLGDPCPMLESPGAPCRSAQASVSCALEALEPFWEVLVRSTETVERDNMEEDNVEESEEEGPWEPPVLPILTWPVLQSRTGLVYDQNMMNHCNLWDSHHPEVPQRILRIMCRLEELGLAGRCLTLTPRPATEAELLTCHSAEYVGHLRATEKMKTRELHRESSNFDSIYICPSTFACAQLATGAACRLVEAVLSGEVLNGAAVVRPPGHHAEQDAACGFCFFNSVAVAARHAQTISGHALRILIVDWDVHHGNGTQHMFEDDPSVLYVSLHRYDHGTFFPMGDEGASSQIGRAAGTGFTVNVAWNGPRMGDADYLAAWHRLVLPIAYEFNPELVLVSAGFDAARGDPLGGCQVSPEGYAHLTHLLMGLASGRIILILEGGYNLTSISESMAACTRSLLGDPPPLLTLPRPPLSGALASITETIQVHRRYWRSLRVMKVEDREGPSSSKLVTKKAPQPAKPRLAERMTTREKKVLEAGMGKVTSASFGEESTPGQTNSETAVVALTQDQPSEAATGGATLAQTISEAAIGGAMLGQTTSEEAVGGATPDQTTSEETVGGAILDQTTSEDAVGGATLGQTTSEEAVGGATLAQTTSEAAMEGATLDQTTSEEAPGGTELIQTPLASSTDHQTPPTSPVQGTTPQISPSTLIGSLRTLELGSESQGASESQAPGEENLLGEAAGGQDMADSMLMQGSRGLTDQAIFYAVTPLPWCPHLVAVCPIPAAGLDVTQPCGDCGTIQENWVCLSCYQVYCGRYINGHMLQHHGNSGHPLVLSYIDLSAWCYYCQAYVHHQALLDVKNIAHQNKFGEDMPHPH
Conditions: read-out: IC50
quantity.kind: pIC50
By convention, pIC50 is the negative base-10 log of a molar concentration.

Solved entries (count: 5):
# molecule, pIC50
rows = [
    ("O=C(Cc1ccccc1)Nc1ccc(C(=O)NO)nc1", 6.76),
    ("O=C(/C=C/c1ccc(NC(=O)Cc2ccccc2)cn1)NO", 7.89),
    ("CCC(C(=O)Nc1ccc(/C=C/C(=O)NO)nc1)c1ccccc1 (stereo unspecified)", 7.96),
    ("CCC(C(=O)Nc1ccc(C(=O)NO)nc1)c1ccccc1 (stereo unspecified)", 7.29),
    ("CC(C)C(C(=O)Nc1ccc(/C=C/C(=O)NO)nc1)c1ccccc1 (stereo unspecified)", 8.00),
]

[Q] Form field: reported pIC50 of "O=C(/C=C/c1ccc(NC(=O)Cc2ccc3ccccc3c2)cn1)NO"
[A] 6.95

[Q] Likewise for O=C(NO)c1ccc(NC(=O)C(Cc2ccccc2)c2ccccc2)cn1 (stereo unspecified) ?
[A] 7.80

[Q] Likewise for "O=C(Cc1cccc2ccccc12)Nc1ccc(C(=O)NO)nc1" ?
[A] 7.24

[Q] Likewise for "O=C(Cc1ccc2ccccc2c1)Nc1ccc(C(=O)NO)nc1" ?
[A] 6.91

[Q] Likewise for CC(C)C(C(=O)Nc1ccc(C(=O)NO)nc1)c1ccccc1 (stereo unspecified) ?
[A] 7.39

[Q] Likewise for O=C(/C=C/c1ccc(NC(=O)C(Cc2ccccc2)c2ccccc2)cn1)NO (stereo unspecified) ?
[A] 7.96
